The reported numbers originate from ChEMBL document CHEMBL3351837.

- ASSAY_PROTOCOL: Half life in human plasma after 60 mins by […] analysis
- Type: ADME, cell-free
MEASURE_NAME: half-life

Worked examples follow.
MOLECULE: O=C(Nc1c(Cl)cncc1Cl)c1ccc(OC(F)F)c(OCCCSC2CCOC2=O)c1 (stereo unspecified)
half-life: < 5 min
--
MOLECULE: O=C(Nc1c(Cl)cncc1Cl)c1ccc(OC(F)F)c(OCCCCSC2CCOC2=O)c1 (stereo unspecified)
half-life: < 5 min
--
MOLECULE: O=C(Nc1c(Cl)cncc1Cl)c1ccc(OC(F)F)c(OCCCNC2CCOC2=O)c1 (stereo unspecified)
half-life: < 5 min
--
MOLECULE: O=C(Nc1c(Cl)c[n+]([O-])cc1Cl)c1ccc(OC(F)F)c(OCCCNC2CCOC2=O)c1 (stereo unspecified)
half-life: 8 min
--
MOLECULE: COC(=O)CNCCCOc1cc(C(=O)Nc2c(Cl)cncc2Cl)ccc1OC(F)F
half-life: 19 min

As a next step, examine the molecule that follows.
For the molecule O=C(Nc1c(Cl)cncc1Cl)c1ccc(OC(F)F)c(OCCCCNC2CCOC2=O)c1 (stereo unspecified) , what half-life is on record? < 5 min

====

- ASSAY_PROTOCOL: Apparent permeability of the compound at pH 7.4 buffer by PAMPA
- Assay type: physicochemical
Decision: Papp compared against 0.03 ×10⁻⁶ cm/s; not below it gives true (1), below it gives false (0).

COMPOUND: CC(C)NCC(O)COc1cccc2ccccc12 (stereo not given) [PROPRANOLOL]
ASSIGNED_CLASS: true (1)

Quick check: does O=C(Nc1c(Cl)cncc1Cl)c1ccc(OC(F)F)c(OCCCNC(CCO)C(=O)O)c1 (stereo not given) have Papp greater than or equal to 0.03 ×10⁻⁶ cm/s? false (0)

Is the recorded value of Papp equal to or greater than 0.03 ×10⁻⁶ cm/s for this compound? COC(=O)CNCCCOc1cc(C(=O)Nc2c(Cl)cncc2Cl)ccc1OC(F)F true (1)

Check the entry CNC(=C[N+](=O)[O-])NCCSCc1ccc(CN(C)C)o1 [RANITIDINE] : does Papp equal or exceed 0.03 ×10⁻⁶ cm/s? true (1)

====

- TARGET_OR_SYSTEM: 3',5'-cyclic-AMP phosphodiesterase 4D (Homo sapiens, UniProt Q08499)
- Sequence (Q08499 whole entry): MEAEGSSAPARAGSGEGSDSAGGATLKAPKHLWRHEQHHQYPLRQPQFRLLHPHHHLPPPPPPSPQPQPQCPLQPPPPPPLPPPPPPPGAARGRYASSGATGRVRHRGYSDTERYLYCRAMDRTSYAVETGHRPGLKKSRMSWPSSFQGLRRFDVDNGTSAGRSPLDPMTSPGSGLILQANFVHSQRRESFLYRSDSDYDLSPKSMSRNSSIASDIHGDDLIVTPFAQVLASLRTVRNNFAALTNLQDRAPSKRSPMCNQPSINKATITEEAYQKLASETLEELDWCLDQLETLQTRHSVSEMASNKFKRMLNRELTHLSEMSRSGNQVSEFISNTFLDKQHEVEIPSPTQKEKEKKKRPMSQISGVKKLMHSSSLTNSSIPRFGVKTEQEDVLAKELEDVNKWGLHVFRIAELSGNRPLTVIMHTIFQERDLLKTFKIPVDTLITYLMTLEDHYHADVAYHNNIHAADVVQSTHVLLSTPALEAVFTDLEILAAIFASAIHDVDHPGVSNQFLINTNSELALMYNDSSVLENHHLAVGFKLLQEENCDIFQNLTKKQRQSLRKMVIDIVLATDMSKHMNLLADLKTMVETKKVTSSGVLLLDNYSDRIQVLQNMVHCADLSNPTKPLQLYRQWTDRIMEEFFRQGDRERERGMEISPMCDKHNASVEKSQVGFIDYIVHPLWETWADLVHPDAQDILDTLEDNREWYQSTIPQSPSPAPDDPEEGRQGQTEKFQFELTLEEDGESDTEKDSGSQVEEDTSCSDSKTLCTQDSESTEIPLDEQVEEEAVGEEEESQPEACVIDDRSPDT
The following molecules are listed with their measured pIC50 values.
Notebook: values listed as pIC50 are -log10 of the concentration (mol/L).

Quick one: pIC50 for O=C(Nc1c(Cl)cncc1Cl)c1ccc(OC(F)F)c(OCCCNC2CCOC2=O)c1 (stereo not given) ? 7.74

Find the recorded pIC50 belonging to O=C(Nc1c(Cl)cncc1Cl)c1ccc(OC(F)F)c(OCCCCSC2CCOC2=O)c1 (stereo not given) and report it. 8.74

Returns the measured pIC50 for the input molecule. Input: O=C(Nc1c(Cl)cncc1Cl)c1ccc(OC(F)F)c(OCCCNC(CCO)C(=O)O)c1 (stereo not given) 5.64

Item under review: O=C(O)CNCCCOc1cc(C(=O)Nc2c(Cl)cncc2Cl)ccc1OC(F)F . Reported pIC50? 5.82

Form field: reported pIC50 of O=C(Nc1c(Cl)cncc1Cl)c1ccc(OC(F)F)c(OCCCN[C@H]2CCOC2=O)c1 7.32

Suppose we examine the molecule O=C(Nc1c(Cl)cncc1Cl)c1ccc(OC(F)F)c(OCCCN[C@@H]2CCOC2=O)c1 ; what pIC50 value has been reported? 8.14

Item O=C(Nc1c(Cl)cncc1Cl)c1ccc(OC(F)F)c(OCCCCNC2CCOC2=O)c1 (stereo not given) has what recorded pIC50? 8.18

Which pIC50 is listed for COC(=O)CNCCCOc1cc(C(=O)Nc2c(Cl)cncc2Cl)ccc1OC(F)F ? 7.49

Fill blank: measured pIC50 of the molecule O=C(Nc1c(Cl)cncc1Cl)c1ccc(OC(F)F)c(OCCCCSC(CCO)C(=O)O)c1 (stereo not given) is ____. 8.35

Dear colleague, I am looking for the recorded pIC50 of the following molecule: O=C(Nc1c(Cl)c[n+]([O-])cc1Cl)c1ccc(OC(F)F)c(OCCCNC2CCOC2=O)c1 (stereo not given) 6.77
